- assay_target: T1, Human VEGFA165 (human, UniProt P15692-4 27-191)
- T1 construct: treated as the same molecule; also called antigen VEGFA
- T1 sequence (P15692 other isoform, or with tags, fused parts or gaps limits assumed): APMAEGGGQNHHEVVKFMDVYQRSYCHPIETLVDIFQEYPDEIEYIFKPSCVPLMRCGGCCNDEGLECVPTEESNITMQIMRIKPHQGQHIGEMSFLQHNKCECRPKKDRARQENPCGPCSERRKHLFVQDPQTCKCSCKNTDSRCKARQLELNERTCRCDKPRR
- assay_explanation: phage ELISA, VEGFA coated 0.5 µg/mL, anti-M13(HRP)
This listing pairs binders with measured OD450.
readout_label: OD450 (OD450)

>  <binder>
V31 (VHH, Purified with C-terminal GGGGS-6×His) VHH: QLQLVESGGGSVQPGGSLRLSCEVSGRTFASYTMGWFRQAPGKEREFVVAISKGGYKYDAVSLEARFTISKDNTKNTVYLQMNSLKPEDTAVYYCAGTRAYGSSRLRLAKTYEYWGQGTQVTVSS

>  <readout_label>
OD450

>  <recorded_value>
2.67

$$$$
>  <binder>
V30 (VHH, Purified with C-terminal GGGGS-6×His; also called candidate antibody V30) VHH: QLQLVESGGGSVQPGGSLRLSCEVSGRTFSSYTMGWFRQAPGKGREFVVAISKGGYKYDAVSLEARFTISKDNTKNTVYLQMNSLKPEDTAVYYCAATRAYGSSRLRLAKTYEYWGQGTQVTVSS

>  <readout_label>
OD450

>  <recorded_value>
2.68

$$$$
>  <binder>
V29 (VHH, Purified with C-terminal GGGGS-6×His) VHH: QLQLVESGGGSVQPGGSLRLSCEVSGRTFSSYTMGWFRQAPGKEREFVVAISKGGYKYDSVSLEARFTISKDNTKNTVYLQMNSLKPEDTAVYYCAGTRAYGSSRLRLANTYEYWGQGTQVTVSS

>  <readout_label>
OD450

>  <recorded_value>
2.69

$$$$
>  <binder>
V40 (VHH, Purified with C-terminal GGGGS-6×His) VHH: QLQLVESGGGSVQPGGSLRLSCEVSGRTFTSYTMGWFRQAPGKEREFVVAISKGGYKYNAVSLEARFTISKDNTKNTVYLQMNSLKPEDTAVYYCAGTRAYGSSRLRLAKTYEYWGQGTQVTVSS

>  <readout_label>
OD450

>  <recorded_value>
3.11

$$$$
